- target.of.assay: Cif (Pseudomonas aeruginosa (strain UCBPP-PA14), UniProt A0A0H2ZD27)
- Sequence (A0A0H2ZD27 25-319 limits assumed): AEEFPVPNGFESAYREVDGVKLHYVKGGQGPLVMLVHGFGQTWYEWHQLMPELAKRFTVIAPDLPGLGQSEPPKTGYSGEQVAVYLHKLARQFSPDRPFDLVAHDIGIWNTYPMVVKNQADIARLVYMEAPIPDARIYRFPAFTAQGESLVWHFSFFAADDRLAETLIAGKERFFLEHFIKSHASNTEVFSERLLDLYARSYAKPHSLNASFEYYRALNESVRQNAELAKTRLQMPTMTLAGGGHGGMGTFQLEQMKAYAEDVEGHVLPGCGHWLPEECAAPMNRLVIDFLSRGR
- procedure.text: Secondary screen (sextuplicate) with fluorogenic substrate CMNGC;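 also: purified enzyme assay in 96-well plates, 200 µL volume, fluorescence recorded each minute across a 60 min reaction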
- Format: biochemical
- assay.setup: read-out: % Inhibition, plate 6
Structures can show the parent of a compound that is named as a salt.
parameter.measured: inhibition at 10 µM (%)
Please reply with the bare figure in % and do not write the unit itself.

**Query** # inhibition at 10 µM lookup, item CCOC(=O)[C@H](CCc1ccccc1)N[C@@H](C)C(=O)N1CCC[C@H]1C(=O)O [Enalapril maleate]
**Result** -3

**Query** # inhibition at 10 µM lookup, item CO[C@@]1(NC(=O)Cc2cccs2)C(=O)N2C(C(=O)O)=C(COC(N)=O)CS[C@@H]21 [Cefoxitin sodium]
**Result** 14

**Query** # inhibition at 10 µM lookup, item O=C(CCCCCCC(=O)Nc1ccccc1)NO
**Result** 22

**Query** # inhibition at 10 µM lookup, item C=CCc1ccc(O)c(OC)c1
**Result** -4

**Query** # inhibition at 10 µM lookup, item O=C1CC2(CCCC2)CC(=O)N1CCCCN1CCN(c2ncccn2)CC1 [Buspirone hydrochloride]
**Result** -11

**Query** # inhibition at 10 µM lookup, item CCN(CC)CCOc1ccc2c(c1)C(=O)c1cc(OCCN(CC)CC)ccc1-2
**Result** 0

**Query** # inhibition at 10 µM lookup, item NC(CO)C(=O)NNCc1ccc(O)c(O)c1O (stereo not shown) [Benserazide hydrochloride]
**Result** 80

**Query** # inhibition at 10 µM lookup, item N#C[C@@H]1C[C@@H]2C[C@@H]2N1C(=O)[C@@H](N)C12CC3CC(CC(O)(C3)C1)C2
**Result** 3

**Query** # inhibition at 10 µM lookup, item CC1=NN(c2ccccc2)C(=O)C1
**Result** 6

**Query** # inhibition at 10 µM lookup, item Nc1nc(N)c2nc(-c3ccccc3)c(N)nc2n1
**Result** 16

**Query** # inhibition at 10 µM lookup, item CC(C)Cc1ccc(C(C)C(=O)O)cc1 (stereo not shown)
**Result** 7

**Query** # inhibition at 10 µM lookup, item CN1CCCC(n2nc(Cc3ccc(Cl)cc3)c3ccccc3c2=O)CC1 (stereo not shown) [Azelastine hydrochloride]
**Result** 30

**Query** # inhibition at 10 µM lookup, item Cc1nccnc1N1CCCCC1 [Modaline sulfate]
**Result** 17

**Query** # inhibition at 10 µM lookup, item CN(C)CCCN1c2ccccc2Sc2ccc(C(F)(F)F)cc21 [Triflupromazine hydrochloride]
**Result** -6

**Query** # inhibition at 10 µM lookup, item Cc1cccc(Nc2ccccc2C(=O)O)c1C
**Result** 6

**Query** # inhibition at 10 µM lookup, item CC(=O)CC(c1ccccc1)c1c(O)c2ccccc2oc1=O (stereo not shown)
**Result** 17

**Query** # inhibition at 10 µM lookup, item CC(C(=O)O)c1cccc(C(=O)c2ccccc2)c1 (stereo not shown)
**Result** 4

**Query** # inhibition at 10 µM lookup, item Cc1c(Nc2ncccc2C(=O)O)cccc1C(F)(F)F
**Result** 4

**Query** # inhibition at 10 µM lookup, item C[C@]12CC[C@@H]3c4ccc(O)cc4CC[C@H]3[C@@H]1CC[C@@H]2O
**Result** -6
